tested on: EKVX; assay: relative viability (nuclei count vs DMSO), 5 days (fraction); higher = more cells survive; settings: first compound 0.08 µM
ASSAY METRIC: relative viability
Answer using only a numeral; do not append any unit.

Query: Looking for the measured relative viability of Oc1nc(-c2ccc(C(F)(F)F)cc2)nc2c1CSCC2 [XAV939] + O=C(c1cc(Cc2n[nH]c(=O)c3ccccc23)ccc1F)N1CCN(C(=O)C2CC2)CC1 [Olaparib] (partner 8 µM) , can you help?
Result: 0.929

* * *

tested on: NCI-H1975; assay: relative viability (nuclei count vs DMSO), 5 days (fraction); higher = more cells survive; conditions: first compound 0.03162 µM
Listing: relative viability of selected compounds
Lab note: record the figure alone, no unit after it.

Query: May I ask what relative viability has been recorded for NC(=O)Nc1cc(-c2cccc(F)c2)sc1C(=O)N[C@H]1CCCNC1 [AZD7762] + CS(=O)(=O)N1CCN(Cc2cc3nc(-c4cccc5[nH]ncc45)nc(N4CCOCC4)c3s2)CC1 [Pictilisib] (partner 1 µM) ?
Result: 0.304

Query: Need relative viability of NC(=O)Nc1cc(-c2cccc(F)c2)sc1C(=O)N[C@H]1CCCNC1 [AZD7762] + O=C(CCCCCCC(=O)Nc1ccccc1)NO [Vorinostat] (partner 1 µM) , thanks.
Result: 0.641

Query: I am curious: what relative viability value has been reported for NC(=O)Nc1cc(-c2cccc(F)c2)sc1C(=O)N[C@H]1CCCNC1 [AZD7762] + Nc1ncn([C@H]2C[C@H](O)[C@@H](CO)O2)c(=O)n1 [Decitabine] (partner 2 µM) ?
Result: 0.391

* * *

system: NCI-H727; assay: relative viability (nuclei count vs DMSO), 5 days (fraction); higher = more cells survive; details: first compound 0.3162 µM
ASSAY METRIC: relative viability
Format: numeric value only, no unit, no commentary.

COMPOUND	relative viability
NC(=O)Nc1cc(-c2cccc(F)c2)sc1C(=O)N[C@H]1CCCNC1 [AZD7762] + CC(=O)Nc1cccc(-n2c(=O)n(C3CC3)c(=O)c3c(Nc4ccc(I)cc4F)n(C)c(=O)c(C)c32)c1 [Trametinib] (partner 0.02 µM)	0.366

Query: I would be grateful if you could share the reported relative viability for NC(=O)Nc1cc(-c2cccc(F)c2)sc1C(=O)N[C@H]1CCCNC1 [AZD7762] + CC(C)C[C@H](NC(=O)[C@H](Cc1ccccc1)NC(=O)c1cnccn1)B(O)O [Bortezomib] (partner 0.002 µM) .
Result: 0.446

Query: Sample NC(=O)Nc1cc(-c2cccc(F)c2)sc1C(=O)N[C@H]1CCCNC1 [AZD7762] + C[C@]1(O)C[C@@H](c2nc(-c3ccc4ccc(-c5ccccc5)nc4c3)c3c(N)nccn32)C1 [Linsitinib] (partner 1 µM) — what was its relative viability?
Result: 0.219

Query: Which value of relative viability has been reported for NC(=O)Nc1cc(-c2cccc(F)c2)sc1C(=O)N[C@H]1CCCNC1 [AZD7762] + CCNC(=O)c1noc(-c2cc(C(C)C)c(O)cc2O)c1-c1ccc(CN2CCOCC2)cc1 [Luminespib] (partner 0.01 µM) in the records?
Result: 0.325

* * *

test system: NCI-H358; assay: relative viability (nuclei count vs DMSO), 5 days (fraction); higher = more cells survive; settings: first compound 0.1 µM
ASSAY METRIC: relative viability

COMPOUND	TARGET DESC	ASSAY METRIC	REPORTED MEASUREMENT
NC(=O)Nc1cc(-c2cccc(F)c2)sc1C(=O)N[C@H]1CCCNC1 [AZD7762] + Nc1ncn([C@H]2C[C@H](O)[C@@H](CO)O2)c(=O)n1 [Decitabine] (partner 2 µM)	NCI-H358	relative viability	0.38

Query: Quick check: relative viability of NC(=O)Nc1cc(-c2cccc(F)c2)sc1C(=O)N[C@H]1CCCNC1 [AZD7762] + Cc1nc(NC(=O)N2CCC[C@H]2C(N)=O)sc1-c1ccnc(C(C)(C)C(F)(F)F)c1 [Alpelisib] (partner 2 µM) ?
Result: 0.837

Query: Quick one: relative viability for NC(=O)Nc1cc(-c2cccc(F)c2)sc1C(=O)N[C@H]1CCCNC1 [AZD7762] + CS(=O)(=O)CCNCc1ccc(-c2ccc3ncnc(Nc4ccc(OCc5cccc(F)c5)c(Cl)c4)c3c2)o1 [Lapatinib] (partner 2 µM) ?
Result: 0.497
